# TARGET_ENTITY: T1, human CTLA4 (huCTLA4), full-length, stably expressed on CHO cells (human, UniProt P16410 36-223)
# T1 construct: whole, on cells
# METHOD_SUMMARY: flow cytometry, CHO cells expressing huCTLA4
VALUE_KIND: MFI at 33.3 nM (MFI)
Answers are plain numbers, in MFI.

// input: 4 binders below; output: MFI at 33.3 nM for each
1. variant CD80 IgV-Fc Q33L/E35D/M47V/T62S/V68M/L85M (Fc fusion, not shown: small tags and cut ends; a dimerising Fc or GST) VIHVTKEVKEVATLSCGHNVSVEELAQTRIYWLKDKKMVLTMMSGDVNIWPEYKNRTIFDISNNLSIMILALRPSDEGTYECVVMKYEKDAFKREHLAEVTLSVKAD
2. variant CD80 IgV-Fc E35D/D46E/M47I/T62A/V68M/L85M/Y87C (Fc fusion, not shown: small tags and cut ends; a dimerising Fc or GST) VIHVTKEVKEVATLSCGHNVSVEELAQTRIYWQKDKKMVLTMMSGEINIWPEYKNRTIFDIANNLSIMILALRPSDEGTYECVVMKCEKDAFKREHLAEVTLSVKAD
3. variant CD80 IgV-Fc E35D/M47V/V68M/L85M/Y87D (Fc fusion, not shown: small tags and cut ends; a dimerising Fc or GST) VIHVTKEVKEVATLSCGHNVSVEELAQTRIYWQKDKKMVLTMMSGDVNIWPEYKNRTIFDITNNLSIMILALRPSDEGTYECVVMKDEKDAFKREHLAEVTLSVKAD
4. variant CD80 IgV-Fc E35D/M47V/N48K/V68M/A71G/L85M (Fc fusion, not shown: small tags and cut ends; a dimerising Fc or GST) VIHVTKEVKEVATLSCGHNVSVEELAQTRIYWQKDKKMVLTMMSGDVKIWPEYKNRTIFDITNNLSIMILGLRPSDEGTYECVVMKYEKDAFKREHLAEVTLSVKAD

Result ::
86
17000
13900
16600

// each binder listed below needs its MFI at 33.3 nM
1. variant CD80 IgV-Fc E35D/M47L/Y53F/V68M/A71G/K93R/E95V (Fc fusion, not shown: small tags and cut ends; a dimerising Fc or GST) VIHVTKEVKEVATLSCGHNVSVEELAQTRIYWQKDKKMVLTMMSGDLNIWPEFKNRTIFDITNNLSIMILGLRPSDEGTYECVVLKYEKDAFRRVHLAEVTLSVKAD
2. variant CD80 IgV-Fc E35D/M47V/V68M/L85M (Fc fusion, not shown: small tags and cut ends; a dimerising Fc or GST) VIHVTKEVKEVATLSCGHNVSVEELAQTRIYWQKDKKMVLTMMSGDVNIWPEYKNRTIFDITNNLSIMILALRPSDEGTYECVVMKYEKDAFKREHLAEVTLSVKAD

Result ::
[16000, 16000]

Would you mind giving MFI at 33.3 nM for every binder in the list below?
1. variant CD80 IgV-Fc E35D/T41S/D46E/M47I/V68M/K93R/E95V (Fc fusion, not shown: small tags and cut ends; a dimerising Fc or GST) VIHVTKEVKEVATLSCGHNVSVEELAQTRIYWQKDKKMVLSMMSGEINIWPEYKNRTIFDITNNLSIMILALRPSDEGTYECVVLKYEKDAFRRVHLAEVTLSVKAD
2. variant CD80 IgV-Fc E35D/M47L/V68M/E95V/L97Q (Fc fusion, not shown: small tags and cut ends; a dimerising Fc or GST) VIHVTKEVKEVATLSCGHNVSVEELAQTRIYWQKDKKMVLTMMSGDLNIWPEYKNRTIFDITNNLSIMILALRPSDEGTYECVVLKYEKDAFKRVHQAEVTLSVKAD
3. variant CD80 IgV-Fc Q33R/E35D/M38I/M47L/V68M (Fc fusion, not shown: small tags and cut ends; a dimerising Fc or GST) VIHVTKEVKEVATLSCGHNVSVEELAQTRIYWRKDKKIVLTMMSGDLNIWPEYKNRTIFDITNNLSIMILALRPSDEGTYECVVLKYEKDAFKREHLAEVTLSVKAD
4. variant CD80 IgV-Fc H18Y/E35D/V68M/T79M/L85M (Fc fusion, not shown: small tags and cut ends; a dimerising Fc or GST) VIHVTKEVKEVATLSCGYNVSVEELAQTRIYWQKDKKMVLTMMSGDMNIWPEYKNRTIFDITNNLSIMILALRPSDEGMYECVVMKYEKDAFKREHLAEVTLSVKAD

Result ::
18400
15000
107
16300

For every item below, please supply its MFI at 33.3 nM.
1. variant CD80 IgV-Fc E35D/M47V/N48K/V68M/L85M (Fc fusion, not shown: small tags and cut ends; a dimerising Fc or GST) VIHVTKEVKEVATLSCGHNVSVEELAQTRIYWQKDKKMVLTMMSGDVKIWPEYKNRTIFDITNNLSIMILALRPSDEGTYECVVMKYEKDAFKREHLAEVTLSVKAD
2. variant CD80 IgV-Fc E24D/E35D/M47L/V68M/E95V/L97Q (Fc fusion, not shown: small tags and cut ends; a dimerising Fc or GST) VIHVTKEVKEVATLSCGHNVSVEDLAQTRIYWQKDKKMVLTMMSGDLNIWPEYKNRTIFDITNNLSIMILALRPSDEGTYECVVLKYEKDAFKRVHQAEVTLSVKAD
3. variant CD80 IgV-Fc H18Y/V22D/E35D/M47V/N48K/V68M (Fc fusion, not shown: small tags and cut ends; a dimerising Fc or GST) VIHVTKEVKEVATLSCGYNVSDEELAQTRIYWQKDKKMVLTMMSGDVKIWPEYKNRTIFDITNNLSIMILALRPSDEGTYECVVLKYEKDAFKREHLAEVTLSVKAD
4. variant CD80 IgV-Fc E35D/M43I/M47L/V68M (Fc fusion, not shown: small tags and cut ends; a dimerising Fc or GST) VIHVTKEVKEVATLSCGHNVSVEELAQTRIYWQKDKKMVLTMISGDLNIWPEYKNRTIFDITNNLSIMILALRPSDEGTYECVVLKYEKDAFKREHLAEVTLSVKAD
5. variant CD80 IgV-Fc R29C/E35D/M47L/V68M/A71G/L85M (Fc fusion, not shown: small tags and cut ends; a dimerising Fc or GST) VIHVTKEVKEVATLSCGHNVSVEELAQTCIYWQKDKKMVLTMMSGDLNIWPEYKNRTIFDITNNLSIMILGLRPSDEGTYECVVMKYEKDAFKREHLAEVTLSVKAD
6. variant CD80 IgV-Fc Q27L/Q33L/E35D/T41S/M47V/N48K/V68M/L85M (Fc fusion, not shown: small tags and cut ends; a dimerising Fc or GST) VIHVTKEVKEVATLSCGHNVSVEELALTRIYWLKDKKMVLSMMSGDVKIWPEYKNRTIFDITNNLSIMILALRPSDEGTYECVVMKYEKDAFKREHLAEVTLSVKAD

Result ::
[15600, 15500, 15800, 16200, 91, 178]

Would you be so kind as to report MFI at 33.3 nM for each listed record?
1. variant CD80 IgV-Fc E35D/D46E/M47L/V68M/T79M/L85M/L97Q (Fc fusion, not shown: small tags and cut ends; a dimerising Fc or GST) VIHVTKEVKEVATLSCGHNVSVEELAQTRIYWQKDKKMVLTMMSGELNIWPEYKNRTIFDITNNLSIMILALRPSDEGMYECVVMKYEKDAFKREHQAEVTLSVKAD
2. variant CD80 IgV-Fc E35D/D46E/M47V/V68M/L85Q (Fc fusion, not shown: small tags and cut ends; a dimerising Fc or GST) VIHVTKEVKEVATLSCGHNVSVEELAQTRIYWQKDKKMVLTMMSGEVNIWPEYKNRTIFDITNNLSIMILALRPSDEGTYECVVQKYEKDAFKREHLAEVTLSVKAD

Result ::
[96, 15500]
